# System: SK-MEL-28 melanoma
# PROTOCOL TEXT: NCI-60 one-dose screen, 48 h (100 = growth as untreated, 0 = no growth, -100 = all killed)
# COND: 10 µM unless noted
This is part of a sample that, as a whole, favours compounds with a hit. Of some 83,000 tested, about 20% had one in any assay.
PROPERTY: growth (%)

{"COMPOUND": "CS(=O)(=O)N1CCc2c(-c3cnc(N)nc3)nc(N3CCOCC3)nc21", "TARGET OR SYSTEM": "SK-MEL-28 melanoma", "PROPERTY": "growth", "NUMERIC READOUT": -15.9}
{"COMPOUND": "C#Cc1cccc(Nc2ncnc3cc(OCCOC)c(OCCOC)cc23)c1", "TARGET OR SYSTEM": "SK-MEL-28 melanoma", "PROPERTY": "growth", "NUMERIC READOUT": 86.8}
{"COMPOUND": "NC(=O)Nc1cc(-c2cccc(F)c2)sc1C(=O)N[C@H]1CCCNC1", "TARGET OR SYSTEM": "SK-MEL-28 melanoma", "PROPERTY": "growth", "NUMERIC READOUT": 14.2}
{"COMPOUND": "COc1ccc2c(c1)cn1c3ccc(O)cc3nc(N)c21", "TARGET OR SYSTEM": "SK-MEL-28 melanoma", "PROPERTY": "growth", "NUMERIC READOUT": 42.6}
{"COMPOUND": "CCN(CC)CCN1C(=O)c2cccc3c(-c4ccc5c(c4)ncn5C4CCCCC4)ccc(c23)C1=O", "TARGET OR SYSTEM": "SK-MEL-28 melanoma", "PROPERTY": "growth", "NUMERIC READOUT": -38.2}
{"COMPOUND": "COc1cnc2c(c1)C(=O)c1c-2n(CCCNC2=NCCS2)c(=O)c2cc(Cl)ccc12", "TARGET OR SYSTEM": "SK-MEL-28 melanoma", "PROPERTY": "growth", "NUMERIC READOUT": 90.8}
{"COMPOUND": "Nc1nc(=S)c2ncn(C3OC(COC(=O)c4ccc(Cl)cc4)C(OC(=O)c4ccc(Cl)cc4)C3OC(=O)c3ccc(Cl)cc3)c2[nH]1 (stereo not given)", "TARGET OR SYSTEM": "SK-MEL-28 melanoma", "PROPERTY": "growth", "NUMERIC READOUT": 82.4}
{"COMPOUND": "COCC(=O)NC/C=C/c1ccc2ncnc(Nc3ccc(Oc4ccc(C)nc4)c(C)c3)c2c1", "TARGET OR SYSTEM": "SK-MEL-28 melanoma", "PROPERTY": "growth", "NUMERIC READOUT": 12.2}
{"COMPOUND": "C=CC(=O)N1CCC[C@@H](n2nc(-c3ccc(Oc4ccccc4)cc3)c3c(N)ncnc32)C1", "TARGET OR SYSTEM": "SK-MEL-28 melanoma", "PROPERTY": "growth", "NUMERIC READOUT": 79.2}
{"COMPOUND": "Cc1cc2c(F)c(Oc3ncnn4cc(OC[C@@H](C)OC(=O)[C@H](C)N)c(C)c34)ccc2[nH]1", "TARGET OR SYSTEM": "SK-MEL-28 melanoma", "PROPERTY": "growth", "NUMERIC READOUT": 10.5}
